TARGET_OF_ASSAY: GluA1o-γ8 (GRIA1o-CACNG8 fusion construct) (Homo sapiens (Human), UniProt P42261+Q8WXS5)
Sequence (P42261 other isoform, or with tags, fused parts or gaps): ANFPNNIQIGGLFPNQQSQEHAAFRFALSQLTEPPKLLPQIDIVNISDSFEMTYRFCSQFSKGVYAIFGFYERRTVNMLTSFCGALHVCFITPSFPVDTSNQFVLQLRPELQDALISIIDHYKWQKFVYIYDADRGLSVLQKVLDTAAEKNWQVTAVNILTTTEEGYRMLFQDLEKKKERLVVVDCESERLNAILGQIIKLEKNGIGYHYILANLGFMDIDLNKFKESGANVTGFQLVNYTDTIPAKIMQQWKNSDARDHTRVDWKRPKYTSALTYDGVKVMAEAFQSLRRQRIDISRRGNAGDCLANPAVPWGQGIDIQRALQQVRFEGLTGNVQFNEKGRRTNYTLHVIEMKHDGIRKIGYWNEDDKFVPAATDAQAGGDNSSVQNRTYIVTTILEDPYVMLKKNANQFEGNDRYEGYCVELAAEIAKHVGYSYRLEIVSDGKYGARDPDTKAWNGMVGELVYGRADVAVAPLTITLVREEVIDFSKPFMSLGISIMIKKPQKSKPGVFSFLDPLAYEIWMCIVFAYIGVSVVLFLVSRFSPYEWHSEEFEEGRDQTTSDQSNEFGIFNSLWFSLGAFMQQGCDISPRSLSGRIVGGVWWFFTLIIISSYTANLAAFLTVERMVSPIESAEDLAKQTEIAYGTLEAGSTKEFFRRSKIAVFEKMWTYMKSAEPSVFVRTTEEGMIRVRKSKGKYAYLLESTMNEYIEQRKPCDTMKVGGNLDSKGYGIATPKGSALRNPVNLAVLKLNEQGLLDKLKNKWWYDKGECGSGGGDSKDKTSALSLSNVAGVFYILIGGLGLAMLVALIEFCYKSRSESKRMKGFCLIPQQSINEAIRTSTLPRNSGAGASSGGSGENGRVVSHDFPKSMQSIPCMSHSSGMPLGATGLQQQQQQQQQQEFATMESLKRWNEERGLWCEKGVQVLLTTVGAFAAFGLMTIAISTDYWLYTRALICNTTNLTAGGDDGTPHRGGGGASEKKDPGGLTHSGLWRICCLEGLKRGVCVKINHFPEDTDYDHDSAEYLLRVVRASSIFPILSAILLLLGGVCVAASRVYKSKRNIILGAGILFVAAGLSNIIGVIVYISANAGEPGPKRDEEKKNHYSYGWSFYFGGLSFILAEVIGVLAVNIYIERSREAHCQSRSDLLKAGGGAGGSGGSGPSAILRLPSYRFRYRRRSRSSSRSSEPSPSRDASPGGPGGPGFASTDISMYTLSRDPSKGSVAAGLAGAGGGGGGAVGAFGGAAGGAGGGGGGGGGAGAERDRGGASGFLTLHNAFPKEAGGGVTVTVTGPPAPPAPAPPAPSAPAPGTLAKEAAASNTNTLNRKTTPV
PROCEDURE_DETAILS: Calcium flux assay (FLIPR), inhibition of TARP γ8 dependent AMPA receptor activity
CONDITION_DETAILS: GluA1o-γ8 (GRIA1o-CACNG8 fusion) in HEK293 cells, calcium flux after 15 μM glutamate
MEASUREMENT_LABEL: IC50 (nM)

Cc1cc(-n2c(-c3ccc(F)cc3)nc3ccc(C(F)(F)F)nc32)cc2cn[nH]c12 = 0.0126

I. FC(F)(F)c1ccc2nc(C(F)(F)F)n(-c3cnc4[nH]ncc4c3)c2n1
II. COC(=O)CCc1nc2ccc(C(F)(F)F)nc2n1-c1ccc2c(c1)CC(=O)N2
III. O=C1Cc2cc(-n3c(CCC(F)(F)F)nc4ccc(C(F)(F)F)nc43)ccc2N1
// query Arrange by IC50, high to low. Reply with the item labels sorted in the order that was asked for.
// result II, III, I

A. FC(F)(F)c1ccc2nc([C@H]3C[C@H](F)C3)n(-c3cc(Cl)c4[nH]ncc4c3)c2n1
B. Cc1cc(-n2c(C3CC3)cc3cccnc32)cc2c1NC(=O)C2
C. O=c1[nH]c2ccc(-n3c(C(F)(F)F)nc4ccc(C(F)(F)F)nc43)cc2s1
D. Cc1nc2ccc(C(F)(F)F)nc2n1-c1ccc2c(c1)CC(=O)N2
// query Sort the compounds on IC50; start with the lowest figure. Reply with the item labels sorted in the order that was asked for.
// result A, C, B, D

A. FC(F)(F)c1ccc2cc(-c3ccccc3)n(-c3ccc4[nH]ccc4c3)c2n1
B. FC(F)(F)c1ccc(-c2nc3cccnc3n2-c2ccc3[nH]ncc3c2)cc1
// query Hi there, can you help? I need to know whether A or B has lower measured IC50. State the label of the item chosen.
// result A
(A: 7.94 nM, B: 10000 nM)

P. O=C(c1nc2ccc(C(F)(F)F)nc2n1-c1ccc2[nH]ncc2c1)N1CCC1
Q. FC(F)c1nc2ccc(C(F)(F)F)nc2n1-c1ccc2[nH]ncc2c1
// query Hi there, can you help? I need to know whether P or Q has lower measured IC50. State the label of the item chosen.
// result Q
(Q: 3.16 nM, P: 501 nM)

1. O=c1[nH]c2ccc(-n3c(-c4ccccc4)nc4ccc(O)nc43)cc2s1
2. CC(C)c1nc2ccc(C(F)F)nc2n1-c1cc(Cl)c2[nH]ncc2c1
3. FC(F)(F)c1ccc2nc(C3CC3)n(-c3cc(Cl)c4[nH]ncc4c3)c2n1
4. FC(F)c1nc2ccc(C(F)(F)F)nc2n1-c1cc(Br)c2[nH]ncc2c1
// query Sort the compounds on IC50; start with the lowest figure. Reply with the item labels sorted in the order that was asked for.
// result 3, 4, 2, 1
(3: 0.00501 nM, 4: 0.0158 nM, 2: 0.0316 nM, 1: 15.8 nM)

* * *

TARGET_OF_ASSAY: GluA1o-γ8 (GRIA1o-CACNG8 fusion construct) (Homo sapiens (Human), UniProt P42261+Q8WXS5)
PROCEDURE_DETAILS: Calcium flux assay (FLIPR), inhibition of TARP γ8 dependent AMPA receptor activity
CONDITION_DETAILS: GluA1o-γ8 (GRIA1o-CACNG8 fusion) in HEK293 cells, calcium flux after 15 μM glutamate
MEASUREMENT_LABEL: IC50 (nM)

Example cases with answers are listed next.
O=c1[nH]c2c(Cl)cc(-n3c(C(F)(F)F)nc4ccc(C(F)(F)F)nc43)cc2s1 [Example 282] = 0.0316
FC(F)(F)Oc1ccc(-c2nc3cccnc3n2-c2ccc3[nH]ncc3c2)cc1 [Example 177] = 12600
CC(C)c1nc2ccc(C3CC3)nc2n1-c1ccc2[nH]ncc2c1 [Example 79] = 2
Cc1ccc2nc(C(F)(F)F)n(-c3cc(Cl)c4[nH]ncc4c3)c2n1 [Example 268] = 0.0631
Cc1cc(-n2c(C(F)(F)F)nc3ccc(CCCO)nc32)cc2cn[nH]c12 [Example 223] = 100
Cc1cc(-n2c(C(C)C)cc3cc(F)cnc32)cc2c1NC(=O)C2 [Example 420] = 0.126

1. FC(F)(F)c1ccc2nc(C(F)(F)F)n(-c3cc(Cl)c4[nH]ncc4c3)c2n1 [Example 270]
2. COC(=O)c1cc(-n2c(C(F)F)nc3ccc(C(F)(F)F)nc32)cc2cn[nH]c12 [Example 285]
// query Hi there, can you help? I need to know whether 1 or 2 has lower measured IC50. State the label of the item chosen.
// result 1

A. CC(C)c1ccnc2c1nc(-c1ccccc1)n2-c1ccc2[nH]c(=O)sc2c1 [Example 70]
B. COc1ccc2cc(-c3ccc(F)cc3)n(-c3ccc4c(c3)CC(=O)N4)c2n1 [Example 384]
// query Hi there, can you help? I need to know whether A or B has lower measured IC50. State the label of the item chosen.
// result A

P. Cc1cc2ccc(C(F)(F)F)nc2n1-c1ccc2[nH]ncc2c1 [Example 354]
Q. O=c1[nH]c2ccc(-n3c(C4CCOCC4)nc4ccc(C(F)(F)F)nc43)cc2s1 [Example 42]
// query Hi there, can you help? I need to know whether P or Q has lower measured IC50. State the label of the item chosen.
// result P

P. Cc1ccc2ccn(-c3cc(C)c4[nH]ncc4c3)c2n1 [Example 341]
Q. O=C1Cc2cc(-n3c(-c4ccc(F)cc4)cc4ccc(C(F)(F)F)nc43)ccc2N1 [Example 398]
R. Cc1ccc2nc(C(F)(F)F)n(-c3ccc4c(c3)CC(=O)N4)c2n1 [Example 139]
S. FC(F)(F)c1ccc2nc(C(F)(F)F)n(-c3ccc4cn[nH]c4c3)c2n1 [Example 291]
// query Sort the compounds on IC50; start with the lowest figure. Reply with the item labels sorted in the order that was asked for.
// result Q, P, R, S
(Q: 0.0631 nM, P: 15.8 nM, R: 39.8 nM, S: 63.1 nM)

* * *

TARGET_OF_ASSAY: GluA1o-γ8 (GRIA1o-CACNG8 fusion construct) (Homo sapiens (Human), UniProt P42261+Q8WXS5)
PROCEDURE_DETAILS: Calcium flux assay (FLIPR), inhibition of TARP γ8 dependent AMPA receptor activity
CONDITION_DETAILS: GluA1o-γ8 (GRIA1o-CACNG8 fusion) in HEK293 cells, calcium flux after 15 μM glutamate
pIC50: −log10 of the molar value.
MEASUREMENT_LABEL: pIC50

O=c1[nH]c2ccc(-n3c(C4CC4)nc4ccc(C(F)(F)F)nc43)cc2[nH]1 = 8.60
Cc1ccc2nc(C(F)F)n(-c3cc(Cl)c4[nH]ncc4c3)c2n1 = 8.50

I. O=C1Cc2cc(-n3c(-c4ccc(F)cc4)nc4ccc(F)nc43)ccc2N1
II. Cc1cc(-n2c(C)cc3ccc(C(F)F)nc32)cc2c1NC(=O)C2
III. Cc1ccc2nc(-c3ccccc3Cl)n(-c3ccc4[nH]ncc4c3)c2n1
// query Arrange by pIC50, high to low. Reply with the item labels sorted in the order that was asked for.
// result II, I, III
(II: 10.10, I: 8.20, III: 7.20)

* * *

TARGET_OF_ASSAY: GluA1o-γ8 (GRIA1o-CACNG8 fusion construct) (Homo sapiens (Human), UniProt P42261+Q8WXS5)
PROCEDURE_DETAILS: Calcium flux assay (FLIPR), inhibition of TARP γ8 dependent AMPA receptor activity
CONDITION_DETAILS: GluA1o-γ8 (GRIA1o-CACNG8 fusion) in HEK293 cells, calcium flux after 15 μM glutamate
MEASUREMENT_LABEL: IC50 (nM)

a. Cc1cc(-n2c(-c3ccnc(F)c3)nc3ccc(C(F)(F)F)nc32)cc2cn[nH]c12 [Example 217]
b. C=CCc1cc(-n2c(C(F)(F)F)nc3ccc(C(F)(F)F)nc32)cc2cn[nH]c12 [Example 304]
c. Cc1ccc2nc(-c3ccnc(F)c3)n(-c3ccc4[nH]c(=O)sc4c3)c2n1 [Example 29]
d. FC(F)(F)c1ccc2nc([C@H]3C[C@@H](F)C3)n(-c3cc(Cl)c4[nH]ncc4c3)c2n1 [Example 248]
e. CC[C@H](C)c1nc2ccc(C(F)(F)F)nc2n1-c1ccc2[nH]ncc2c1 [Example 168]
// query Arrange the 5 compounds from largest to smallest IC50. Reply with the item labels sorted in the order that was asked for.
// result b, e, c, d, a

a. O=c1[nH]c2ccc(-n3c(C4CC4)nc4ccc(C(F)(F)F)nc43)cc2s1 [Example 41]
b. O=C1Cc2cc(-n3c(C4CCOC4)nc4ccc(C(F)(F)F)nc43)ccc2N1 (racemic) [Example 52]
c. Cc1cc(-n2c(C(F)F)nc3ccc(C(F)F)nc32)cc2cn[nH]c12 [Example 212]
// query Sort the compounds on IC50; start with the lowest figure. Reply with the item labels sorted in the order that was asked for.
// result c, a, b
